# assay-text: NCI Yeast Anticancer Drug Screen. Data for the mec2-1 strain (AID 157)
# condition: S. cerevisiae mec2-1 strain, at 50.0 µM (retest, dose inferred, filed as 5.0)
This is part of a sample that, as a whole, favours compounds with a hit. Of some 79,000 tested, about 15% had one in any assay. Active and inactive are the calls of the source. Rule as the data show it: active = growth inhibition above about 70%; inactive = the rest.
Valid outcomes are listed here; reply with one: active, inactive

Example results:
1. CCC[CH2][Sn]([CH2]CCC)([O]C(=O)c1cc(F)cc(F)c1)[O][Sn]([CH2]CCC)([CH2]CCC)[O]C(=O)c1cc(F)cc(F)c1 | active
2. O=[N+]([O-])c1ccc2nc(-c3ccccn3)[nH]c2c1 | inactive
3. CC(C)CN(CC(C)C)CN1C(=O)/C(=C/c2ccc([N+](=O)[O-])cc2)SC1=S | inactive
4. CC(C)c1ccc(O)c(Cc2cc(C(C)C)ccc2O)c1 | active

Record lookup: outcome of this test for CC(C)=CC1C(COC(=O)CCl)C1(C)C (stereo unspecified) ? inactive

Another compound to look at: `Cc1nn(C(=S)S)c(C)c1N=Nc1cccc(F)c1` inactive

Another compound to look at: `COc1ccc(-c2cc(C(=O)O)c3cccc(C(F)(F)F)c3n2)cc1` active

Another compound to look at: `O=C(c1ccccc1)c1cccc2ccccc12` inactive

Another compound to look at: COc1cccc2c1C(=O)c1c(O)c3c(c(O)c1C2=O)C[C@@](O)(/C(C)=N\NC(N)=O)C[C@@H]3OC1CC(N)C(O)C(C)O1 (stereo partly specified) inactive

Another compound to look at: `CSC(=S)NN=C(c1ccccn1)c1ccccn1` inactive
